tested on: NCI-H226 lung; assay: NCI-60 one-dose screen, 48 h (100 = growth as untreated, 0 = no growth, -100 = all killed); conditions: 10 µM unless noted
About 83,000 compounds went through this panel and 20% of them were active in at least one assay; those are over-represented in the sample as a whole.
observed property: growth (%)
// units = %; emit number, no label

CS(=O)(=O)c1ccc(/C=C\C(=O)O)cc1 | 96.1
CC(C)(C)[Si](C)(C)OCC1OC(n2cnc3c(N)ncnc32)CC1OS(C)(=O)=O (centres undefined) | 101
CCC(/C=C\C(C)=O)CC | 107

Alright, here's another compound for you.
Prompt: Value lookup for growth; key = Clc1ccc(/C=C/c2ccccn2)cc1
Response: 101

====

tested on: OVCAR-3 ovarian; assay: NCI-60 one-dose screen, 48 h; conditions: 10 µM unless noted
About 83,000 compounds went through this panel and 20% of them were active in at least one assay; those are over-represented in the sample as a whole. Calls of active or inactive are those of the source. Rule for the calls: active = growth percent below 10; inactive = the rest.
API: response.call in label 1 for active, label 0 for inactive

Here's what some known entries look like.
Nc1ncnc(Nc2ccc(C(F)(F)F)cc2)n1 | label 0
C/C(O)=C(/C=N/C(=S)Nc1ccccc1)C(=O)Nc1ccccc1C | label 0
Nc1ccc2ccccc2c1-c1c(N)ccc2ccccc12 | label 1

Next up:
Prompt: State the result this test recorded for CCCCn1cnc2c(=O)[nH]cnc21 .
Response: label 0

====

Reported growth values for a set of compounds
tested on: EKVX NSCLC; experiment: NCI-60 one-dose screen, 48 h (100 = growth as untreated, 0 = no growth, -100 = all killed); conditions: 10 µM unless noted
Compounds without any hit were thinned out: in the full panel of roughly 83,000, 20% have a hit.
// units = %; emit number, no label

# annotated cases, reported growth shown
Nc1ncc([N+](=O)[O-])cn1 | 105
Cc1ccc(N)c(S(=O)(=O)O)c1 | 110
OCCNc1ccccc1 | 111
CN1CCN(C(=S)S)CC1 | 106
CC(C)(C)CC1(C)NC(=O)NC1=O (configuration not stated) | 108

Prompt: Value lookup for growth; key = Cc1ccc[n+](CCC(N)=O)c1
Response: 90.2

Prompt: Value lookup for growth; key = O=C1Nc2ccccc2/C1=C\c1ccccc1O
Response: 56.4

Prompt: Value lookup for growth; key = Nc1c(O)c(S(=O)(=O)O)c(O)c2c1C(=O)c1ccccc1C2=O
Response: 33.8

Prompt: Value lookup for growth; key = c1ccc(-c2ccc3ccccc3c2)cc1
Response: 103

Prompt: Value lookup for growth; key = COC(=O)c1ccc([N+](=O)[O-])c(C)c1
Response: 109

Prompt: Value lookup for growth; key = O=C1C=C[C@H](O)[C@@]2(CO)O[C@@H]12
Response: 72.4

Prompt: Value lookup for growth; key = CC1CC(C)S(=O)(=O)C1 (configuration not stated)
Response: 108

Prompt: Value lookup for growth; key = Cc1cc2nc(C)c(C)nc2cc1C
Response: 98.4

Prompt: Value lookup for growth; key = Cn1c(=O)c2[nH]c(CCCCC(=O)O)nc2n(C)c1=O
Response: 131

Prompt: Value lookup for growth; key = COc1ccc(-c2csc(NC(=O)Nc3nc(-c4ccc(OC)cc4)cs3)n2)cc1
Response: 72.3

Prompt: Value lookup for growth; key = CC(C)C(=O)OCCOc1ccc(C(C)(C)C)cc1
Response: 103

Prompt: Value lookup for growth; key = CCOC(=O)c1c[nH][nH]c1=O
Response: 116

Prompt: Value lookup for growth; key = Cc1cccc(C)c1NC(=S)/N=C\c1c(O)[nH]c(=O)[nH]c1=O
Response: 77.3

Prompt: Value lookup for growth; key = Cc1cc(Cl)cc(Cc2cc(Cl)cc(C)c2O)c1O
Response: 53.9

Prompt: Value lookup for growth; key = O=C(CCCl)OCCOc1ccccc1
Response: 109

Prompt: Value lookup for growth; key = C=CCN1CCCC1=O
Response: 96.8

Prompt: Value lookup for growth; key = c1ccc2[nH]c(Cc3nc4ccccc4[nH]3)nc2c1
Response: 104

====

Reported growth values for a set of compounds
test system: HCT-15 colon; assay: NCI-60 one-dose screen, 48 h (100 = growth as untreated, 0 = no growth, -100 = all killed); details: 10 µM unless noted
Compounds without any hit were thinned out: in the full panel of roughly 83,000, 20% have a hit.
// units = %; emit number, no label

# annotated cases, reported growth shown
Clc1ncnc2nc[nH]c12 | 96.4
O=c1[nH]c(=O)c2cc(Cl)cc(Cl)c2[nH]1 | 107
CC(=O)C[n+]1ccc(C)cc1Sc1ccccc1C | 97.1
Cc1cccc(C)c1NC(=S)/N=C\c1c(O)[nH]c(=O)[nH]c1=O | 107
c1ccc2[nH]c(Cc3nc4ccccc4[nH]3)nc2c1 | 107

Prompt: Value lookup for growth; key = NC(=S)c1c(N)n(C2OC(CO)C(O)C2O)c2ncnc(N)c12 (stereo not given)
Response: 3.4

Prompt: Value lookup for growth; key = COc1ccc(/C=C\C(=O)/C=C/c2ccc(OC)cc2)cc1
Response: -13.7

Prompt: Value lookup for growth; key = CCOc1ccc2c(c1)c(C)cc(C)[n+]2CC
Response: 112

Prompt: Value lookup for growth; key = O=C(O)c1ccccc1Cc1ccc2c(c1)CCCC2
Response: 104

====

system: BT-549 breast; assay: NCI-60 one-dose screen, 48 h (100 = growth as untreated, 0 = no growth, -100 = all killed); conditions: 10 µM unless noted
This is part of a sample that, as a whole, favours compounds with a hit. Of some 83,000 tested, about 20% had one in any assay.
Reported growth values for a set of compounds
// units = %; emit number, no label

O=C(CCl)Nc1ccccc1SCc1cc(Cl)cc2c1OCOC2 | 71.9

Prompt: Value lookup for growth; key = O=C(NCc1ccccc1)/C(=C/c1ccccc1)NC(=O)c1ccccc1
Response: 98.6

Prompt: Value lookup for growth; key = O=C(O)c1cccc(-n2ncc(Cl)c(Cl)c2=O)c1
Response: 105

Prompt: Value lookup for growth; key = CC1(C)OC2C(CO)OC(n3ccc(=O)[nH]c3=O)C2O1 (stereo not given)
Response: 104

Prompt: Value lookup for growth; key = CCN(CC)CCN1CNC(=S)NC1
Response: 102

====

tested on: NCI-H23 lung; assay: NCI-60 one-dose screen, 48 h; details: 10 µM unless noted
This is part of a sample that, as a whole, favours compounds with a hit. Of some 83,000 tested, about 20% had one in any assay. Activity calls are given as the source filed them. How the source made its calls: active means growth percent below 10; inactive means the rest.
API: response.call in true for active, false for inactive

C=C(c1ccc(N(C)C)cc1)c1ccc(N(C)C)cc1 | false

Prompt: State the result this test recorded for CCCCCCCCCCCCCC/C=C\C(CC(=O)O)C(=O)O (stereo not drawn) .
Response: false

Prompt: State the result this test recorded for Nc1c(O)c(S(=O)(=O)O)c(O)c2c1C(=O)c1ccccc1C2=O .
Response: false

====

test system: EKVX NSCLC; experiment: NCI-60 one-dose screen, 48 h; details: 10 µM unless noted
This is part of a sample that, as a whole, favours compounds with a hit. Of some 83,000 tested, about 20% had one in any assay. Active and inactive are the calls of the source. How the source made its calls: active means growth percent below 10; inactive means the rest.
API: response.call in active, inactive

Here's what some known entries look like.
Cc1nc(O)cc(=O)[nH]1 | inactive
C/C=C/C1OCC(CC)C(CCC)O1 (stereo not given) | inactive
N=C(N)c1nn(C2OC(CO)C(O)C2O)c2nc[nH]c(=O)c12 (stereo not given) | active
CCOC(=O)/C(O)=C(\C=N\C(=S)Nc1ccc(Cl)c(Cl)c1)C(=O)OCC | inactive

Next up:
Prompt: State the result this test recorded for CC(=O)NNC(=S)N/C=C/c1c(C)ccc([N+](=O)[O-])c1[N+](=O)[O-] .
Response: inactive

====

Reported growth values for a set of compounds
system: UACC-62 melanoma; assay: NCI-60 one-dose screen, 48 h (100 = growth as untreated, 0 = no growth, -100 = all killed); details: 10 µM unless noted
This is part of a sample that, as a whole, favours compounds with a hit. Of some 83,000 tested, about 20% had one in any assay.
// units = %; emit number, no label

CN1CCCN(C(c2ccccc2)c2ccc(Cl)cc2)CC1 (centres undefined) | 106
CCN1CCCC(N2c3ccccc3Sc3ccccc32)C1 (centres undefined) | 104
Nc1ccc(F)cc1F | 100
CCCCCCCCCCC(=O)CCCCCCCCCC | 105
O=Cc1ccc(O)c(O)c1 | 98.2

Prompt: Value lookup for growth; key = NNc1ncnc2nc[nH]c12
Response: 18.7

Prompt: Value lookup for growth; key = Clc1cccc(Cl)c1C1CSc2ccccc2N=C1c1ccccc1 (centres undefined)
Response: 68.9

Prompt: Value lookup for growth; key = S=C(NCc1ccccc1)N1CCC(CCCC2CCN(C(=S)NCc3ccccc3)CC2)CC1
Response: 79.1
